Tested on: MOLT-4
TEST METHOD NOTES: NCI tumour cell line growth inhibition, 48 h
Activity calls are given as the source filed them. Rule as the data show it: active = GI50 up to about 1.1 µM and inactive = higher.

{"columns": ["COMPOUND", "GI50"],
 "data": [
  ["Nc1nc(N)nc(-c2ccccc2NS(=O)(=O)c2ccc([N+](=O)[O-])cc2)n1", "> 54.5 µM (inactive)"],
  ["NC(=O)CNC(=O)[C@@H]1CC(OCCC(=O)O)CN1C(=O)C1CCCN1C(=O)OCc1ccccc1 (some centres not stated)", "> 100 µM (inactive)"],
  ["O=C1C=CC(=O)c2c1ccc1c3ccccc3n(-c3ccccc3)c21", "0.561 µM (active)"],
  ["NC1(CCNC(=O)c2ccccc2)CCN(C(=O)c2ccccc2)CC1", "> 100 µM (inactive)"],
  ["CN(C(=O)/C=C/c1ccccc1)C1C2CN3CCC(O2)C13 (configuration not stated)", "> 100 µM (inactive)"],
  ["CN(C)CCNC(=O)c1cccc2[nH]c(-c3ccncc3)nc12", "3.56 µM (inactive)"],
  ["CC1(C)C2C=CC1C(=O)CC2 (configuration not stated)", "> 100 µM (inactive)"],
  ["NNC(=O)c1nn[nH]c1C(=O)NN", "> 100 µM (inactive)"],
  ["Cc1ccn2c(=O)cc(CN3CCOCC3)nc2c1", "> 100 µM (inactive)"],
  ["C#CCN(C)C(=O)N(CC#C)N=O", "> 100 µM (inactive)"],
  ["COc1ccc(C(=C(I)c2ccccc2)c2ccc(OC)cc2)cc1", "> 100 µM (inactive)"],
  ["O=C(O)C(CS)NCc1c2ccccc2[n+]([O-])c2ccccc12 (configuration not stated)", "13.8 µM (inactive)"]
]}

###

System: CCRF-CEM
TEST METHOD NOTES: NCI tumour cell line growth inhibition, 48 h
The source made the active and inactive calls. Rule as the data show it: active = GI50 up to about 1.1 µM and inactive = higher.
Labels: active, inactive

{"columns": ["COMPOUND", "CLASS ASSIGNMENT"],
 "data": [
  ["CC(C)[Si](CC1=CCCCC12C(=O)N(COCC[Si](C)(C)C)c1ccccc12)(C(C)C)C(C)C (configuration not stated)", "active"],
  ["C=C(C(=O)O)C1CCC(CC/C=C(\\C)CC/C=C(\\C)CCC=C(C)C)CO1 (configuration not stated)", "inactive"],
  ["COC(=O)C1C(OCc2ccccc2)C2CCC1(OC)C=C2C (configuration not stated)", "inactive"],
  ["Cc1nc(=O)[nH]c2[nH][nH]c(=O)c12", "inactive"],
  ["CCn1c2ccccc2c2nnc(NCCCO)nc21", "inactive"],
  ["CCOC(=O)CCN1C(=O)c2ccc(NC(=O)C(=O)O)cc2S1(=O)=O", "inactive"],
  ["CC1(C)Oc2ccc3c(=O)cc(-c4cccs4)oc3c2C1C(=O)O (configuration not stated)", "inactive"],
  ["COc1cc(/C=C/C(=O)OC[C@H](Br)[C@H](OC(C)=O)c2ccc3c(c2)OCO3)cc(OC)c1OC", "inactive"],
  ["COc1cc(CNc2ccc(SC)cc2)cc(OC)c1OC", "inactive"],
  ["COc1cc(/C=C/C(=O)CC(=O)/C=C/c2ccc(OC(=O)CCCCC3CCSS3)c(OC)c2)ccc1OC(=O)CCCCC1CCSS1 (configuration not stated)", "inactive"],
  ["O=c1c(Br)c(-c2ccccc2)[s+]([O-])c2ccccc12 (configuration not stated)", "active"],
  ["NC1(CCNC(=O)c2ccccc2)CCN(C(=O)c2ccccc2)CC1", "inactive"],
  ["CC(=O)OC1(C#N)CC2OC1C1N=NN(C(=O)OC(C)(C)C)C21 (configuration not stated)", "inactive"],
  ["CCCc1cc(=O)oc2c(C=O)c(O)cc(O)c12", "inactive"],
  ["O=C1CSC2(CC(/C=C/C=C/c3ccccc3)=NN2c2cccc(S(=O)(=O)O)c2)N1c1nc2ccccc2s1 (configuration not stated)", "inactive"],
  ["CC(=O)NC1C(O)C(O)C(CO)OC1n1ncc(=O)[nH]c1=O (configuration not stated)", "inactive"],
  ["COC(=O)CSSCc1ccc([N+](=O)[O-])cc1", "inactive"],
  ["COC(=O)/C=C\\C1C(C(=O)OC)C2(C(=O)OC)CCC1(C(=O)OC)N2 (configuration not stated)", "inactive"],
  ["O=S(=O)(O)c1cccc2ccc(O)c(/N=N\\c3ccc(S(=O)(=O)c4ccc(/N=N/c5c(O)ccc6cccc(S(=O)(=O)O)c56)cc4)cc3)c12", "inactive"],
  ["CC1(C)C2CC3C(C)(C2)C31c1cc(Cl)ccc1N (configuration not stated)", "inactive"],
  ["COC(=O)c1ccc2cc(O)ccc2c1", "inactive"],
  ["CN(C)/N=N/c1ccc2[nH]c(=O)[nH]c2c1", "inactive"]
]}
